test_name: Mouse pharmacokinetics (oral gavage / intravenous)
Format: in vivo, mice
cond: mouse, plasma, po, 30 mg/kg; read-out: oral bioavailability (F (%))
Measured bioavailability accompanies every entry in the list below.
recorded_metric: bioavailability

>>> readout_value("O=C1NCC2(CCCCC2)n2c1cc1cnc(Nc3ccc(N4CCC(N5CCOCC5)CC4)cn3)nc12")
"52 to 80%"
>>> readout_value("CN1CCN(c2ccc(Nc3ncc4cc5n(c4n3)C3(CCCCC3)CNC5=O)nc2)CC1")
"52 to 80%"
>>> readout_value("CC(C)N1CCN(c2ccc(Nc3ncc4cc5n(c4n3)C3(CCCCC3)CNC5=O)nc2)CC1")
"52 to 80%"
